Values were extracted from patent US20150197559A1.

# tgt: T1, BoNT/B1 (Clostridium botulinum, UniProt P10844 2-1291)
# T1 sequence: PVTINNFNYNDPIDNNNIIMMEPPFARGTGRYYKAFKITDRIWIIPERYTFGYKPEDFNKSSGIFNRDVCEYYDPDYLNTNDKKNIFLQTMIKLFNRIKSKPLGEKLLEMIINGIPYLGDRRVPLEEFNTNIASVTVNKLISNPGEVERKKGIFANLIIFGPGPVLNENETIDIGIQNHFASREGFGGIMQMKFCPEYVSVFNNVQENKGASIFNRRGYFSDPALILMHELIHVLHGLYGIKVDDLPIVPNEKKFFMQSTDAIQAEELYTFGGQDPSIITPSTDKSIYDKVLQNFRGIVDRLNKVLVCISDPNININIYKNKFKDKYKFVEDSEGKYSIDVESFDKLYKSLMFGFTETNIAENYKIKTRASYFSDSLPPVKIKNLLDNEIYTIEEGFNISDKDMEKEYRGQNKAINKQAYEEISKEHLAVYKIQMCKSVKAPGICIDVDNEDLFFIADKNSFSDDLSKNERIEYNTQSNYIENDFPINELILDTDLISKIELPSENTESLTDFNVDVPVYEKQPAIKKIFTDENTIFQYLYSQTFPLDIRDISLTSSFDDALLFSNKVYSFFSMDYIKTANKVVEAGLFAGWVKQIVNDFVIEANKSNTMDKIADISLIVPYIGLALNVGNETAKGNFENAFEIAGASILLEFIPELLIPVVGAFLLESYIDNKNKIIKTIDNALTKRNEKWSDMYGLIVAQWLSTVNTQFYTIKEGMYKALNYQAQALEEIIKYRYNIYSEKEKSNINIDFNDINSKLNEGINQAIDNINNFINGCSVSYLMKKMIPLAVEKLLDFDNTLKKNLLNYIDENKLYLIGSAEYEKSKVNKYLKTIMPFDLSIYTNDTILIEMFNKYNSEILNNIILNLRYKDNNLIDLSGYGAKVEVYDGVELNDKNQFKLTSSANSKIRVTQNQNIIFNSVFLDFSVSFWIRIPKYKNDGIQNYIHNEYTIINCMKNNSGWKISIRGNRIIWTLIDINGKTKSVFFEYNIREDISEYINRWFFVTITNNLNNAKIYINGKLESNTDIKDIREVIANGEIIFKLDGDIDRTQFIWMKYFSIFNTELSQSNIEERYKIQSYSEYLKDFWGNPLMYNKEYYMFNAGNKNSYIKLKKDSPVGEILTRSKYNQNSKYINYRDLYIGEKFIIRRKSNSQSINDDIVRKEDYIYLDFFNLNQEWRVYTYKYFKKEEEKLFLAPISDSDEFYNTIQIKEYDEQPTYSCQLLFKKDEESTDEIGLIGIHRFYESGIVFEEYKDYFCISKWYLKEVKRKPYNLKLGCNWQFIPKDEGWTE
# test description: flow cytometry, yeast-displayed scFv, soluble toxin
outcome measure: Kd
Answers without a unit are incomplete; give the number and then its unit.

Study these solved cases before continuing.
>>> meas_value("2B27 scFv (scFv, V domains shown) VH: EVQLQESGPGLVKPSETLSVTCAVSGGSISSSNYSWAWIRQPPGKGLEWIGTMYYSGSTHYHPSLKSRVTISVDTSKSQLSLKLSSVTAADTAVYYCARRRLLGPSPYYFDYWGQGTLVTVSS VL: QSVVTQPPSVSGAPGQRVTISCSGSSSNIGAGYDVHWYQQLPGTAPKLLIYGNNNRPSGVPDRFSGSKSGTSASLAITGLQAEDEADYYCQSYDSSLSAYVFGTGTKLTVLG")
"1.9 nM"
>>> meas_value("4B7 scFv (scFv) scFv: QVQLQQSGPGLVKPSQTLSLTCSVSGGSINSDGSYWSWVRQHPGKGLEWIGYIYYSGTTYFNPSLKSRLTMSVDTSKNQFSLKMTSVTAADTAVYYCARMSGSRSYSQYYFDSWGQGTLVTVSSGGGGSGGGGSGGGGSDIQMTQSPSSLSASVGDRVTITCRASQSISSYLNWYQQKPGTAPKLLISDASTLQSGVPSRFSGSGSGTEFTLTISNLQPEDFATYYCQQFNSYVWTFGQGTKLEIK")
"29.4 nM"
>>> meas_value("4B6 scFv (scFv) scFv: QVQLVQSGAEVKKPGESLVISCKASGDKDTFTSFWIAWVRQMPGKGLEWMGIIYAGDSDTRYSPSFQGHVNISVDRSTNTAYLQWSSLKASDTAMYYCARHDSRYKYFYFGMDVWGQGTTVTVSSGGGGSGGGGSGGGGSDVVMTQSPSSLSASVGDRITITCQAGQDISNFLNWYQQKPGKAPKLLIRDASNLETGVPSRFSGGGSGTHFTFTISSLHPEDIATYFCQQYDNLPYTFGQGTKLEIK")
"2.7 nM"
>>> meas_value("1B22 scFv (scFv) scFv: QVQLQESGSRLVKPSQTLSLTCGVSGGSISSSSYSWSWIRQTPGKGLEWIGYIYHSGSTYYNPSLKSRVTMSVDKSRNQFSLNMSSVTAADTAVYYCARTAFYYENTGPIRCYLDFWGQGTLVTVSSGGGGSGGGGSGGGGSDIQMTQSPSTLSASIGDRVTISCRASQSIQSWLAWYQQRPGEAPKLLIYSASTLQTGVPSRFSGSGSGTDFTLTISSLQPEDFATYYCQQYNSYPLTFGQGTKLEIK")
"0.52 nM"

Then there is this binder:
Input 2B25 scFv (scFv) scFv: QVQLQESGPGLVKPSQTLSLSCSVSGASITSGTFYWSWIRQHPGKDLEWIGYIYYSGTTYYNPSLKSRVTLSVDTSKNQFSLKVTSLTAADTAVYHCARGVPIYDSSGTYRGTYFDYWGQGTLVTVSSGGGGSGGGGSGGGGSQPGLTQPPSASGTPGQRVTISCSGSSSNVGSNTVNWYQQLPGTAPKLLIYRNDQRPSGVPDRFSGSKSGASASLAISGLRSEDEADYYCAAWDDSLNGLLFGGGTQLTVL . Output Kd: 0.95 nM
